Values from patent US9540348B2

For each of the molecules below, state its log10 GI50.
# Tested on: U937 human leukemic monocyte lymphoma cell line
# Assay Remarks: Antiproliferative activity to U937 human leukemic monocyte lymphoma cell line
# Type: cell-based
# Experimental Conditions: U-937; U937 human leukemic monocyte lymphoma cell line; read-out: U937 (GI50, Unit: μM)
Units before log transform: µM; reported quantity: GI50; transform: log10.

- Cc1c(C)c2c(c(C)c1O)CC[C@](C)(C(=O)Nc1cccc(Cc3nccn3-c3ccnc(NC[C@H](C)O)n3)c1)O2 [Example 16]: 1.37
- C[C@H](O)CNc1nccc(-n2ccnc2Cc2cccc(NC(=O)Cc3ccc(-c4ccccc4)cc3)c2)n1 [Example 11]: 1.00
- Cc1cc(C)cc(C(=O)Nc2cccc(Cc3nccn3-c3ccnc(NC[C@H](C)O)n3)c2)c1 [Example 2]: 1.23
- C[C@H](O)CNc1nccc(-n2ccnc2Cc2cccc(NC(=O)Nc3ccc(Cl)c(Cl)c3)c2)n1 [Example 22]: 1.18

Let us examine a further case.
Entry C[C@H](O)CNc1nccc(-n2ccnc2Cc2cccc(NC(=O)c3ccc(-c4ccccc4)cc3)c2)n1 [Example 12] ; log10 GI50 = 0.23
